Biological target: T1, TM Rad9A 1-266 (Homo sapiens, UniProt Q99638 1-266, K11A;K15A;R22A)
T1 sequence: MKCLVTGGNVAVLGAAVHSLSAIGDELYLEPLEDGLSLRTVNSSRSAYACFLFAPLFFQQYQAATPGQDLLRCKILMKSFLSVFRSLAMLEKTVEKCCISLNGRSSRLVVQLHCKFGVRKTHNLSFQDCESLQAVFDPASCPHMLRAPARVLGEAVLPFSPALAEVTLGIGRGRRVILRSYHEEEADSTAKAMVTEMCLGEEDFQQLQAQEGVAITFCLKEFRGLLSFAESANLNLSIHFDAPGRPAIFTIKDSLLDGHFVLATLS
Experiment: EMSA; EMSA: 20 mM Tris-HCl pH 7.6, 80 mM NaCl, 1 mM DTT, 1 mM EDTA, 1.5% glycerol, 200 ng/ml poly dI/dC, 50 ug/ml BSA, 10 nM DNA; 6% native PAGE in 50 mM Tris-borate
Settings: protein: recombinant; tags: His; label: 5'-fluorescein (6-carboxyfluorescein) on HC40; blunt
Metric: Kd (nM)
One number for each entry, in nM.

[ask] Reported Kd for HC40/HG40 (dsDNA) DNA 1: CCGAGGAATTCGCCTTCTGCTCCATAGCCACTGGTTGTAG DNA 2: CTACAACCAGTGGCTATGGAGCAGAAGGCGAATTCCTCGG : what is it?
[reply] 120
